Below, each entry is listed with its recorded growth AUC.
# System: Coprococcus comes
# protocol: growth AUC relative to DMSO control (median of replicates) (fraction); higher = more growth (less inhibition), active = hit call of the paper
# conditions: 20 µM; 24 h

Past entries and their recorded results:
Cc1c(Br)c2ccc(F)cc2n1S(=O)(=O)c1ncn(S(=O)(=O)N(C)C)n1; 1.03 (inactive)
Cc1nn(C)c(F)c1C(=O)Nc1ccccc1C(C)CC(C)C (centres undefined); 0.985 (inactive)
CCOCN(C(=O)C(=O)O)c1c(C)cccc1CC; 1.01 (inactive)
N#CC(=NOCC1OCCO1)c1ccccc1; 1.01 (inactive)
CN(C)C(=O)Nc1ccccc1; 0.965 (inactive)
CCOCCOC(=O)C(C)Oc1ccc(Oc2ncc(C(F)(F)F)cc2Cl)cc1 (centres undefined); 0.989 (inactive)
COC(=O)Cc1cccc2ccccc12; 0.997 (inactive)
CCCN(CCC)C(=O)SCC; 0.969 (inactive)
Cc1cccc(C)c1N(CCSCC(O)C(=O)[O-])C(=O)CO.[Na+] (centres undefined); 1.04 (inactive)
c1ccc2c(c1)Cc1ccccc1-2; 1.01 (inactive)

Observed growth AUC on Coprococcus comes for `COc1cc(OC)nc(NC(=O)NS(=O)(=O)c2c(Cl)nc3ccccn23)n1` , please. 0.981 (inactive)

Another: COc1cc(OC)nc(Sc2cccc3c2C(=O)OC3C)n1 (centres undefined) 1 (inactive)

These entries and their values trace back to the supplement of paper PMC12669032.
